Test system: Escherichia coli TOP10
Test: shrunken log2 fold change of peptide-encoding DNA abundance (4.5 h post-induction vs induction); higher = less antimicrobial activity (less host growth inhibition)
Conditions: time post-induction: 4.5 h; library: site-saturation at positions 5, 18, 19, 20
reported.metric: shrunken log2 fold change
Provide a numeric answer; units are not to be included.

Field: example entries. Status: answers known.
RRIRFRPPRLPRPRPRPVLEPRP | 0.00555
RRIRSRPPRLPRPRPRPMRAPRP | 0.706

### Prompt // returns reported shrunken log2 fold change for input `RRIRIRPPRLPRPRPRPMATPRP`
### Response -0.0167

### Prompt Param item = `RRIRRRPPRLPRPRPRPIPHPRP` ; retrieve measured shrunken log2 fold change.
### Response 0.822

### Prompt Looking for the measured shrunken log2 fold change of `RRIRRRPPRLPRPRPRPHLSPRP` , can you help?
### Response 0.112

### Prompt Give its shrunken log2 fold change value. Item: `RRIRYRPPRLPRPRPRPPFYPRP`
### Response -0.789

====

Tested on: Escherichia coli TOP10
Assay: shrunken log2 fold change of peptide-encoding DNA abundance (4.5 h post-induction vs induction); higher = less antimicrobial activity (less host growth inhibition)
Details: time post-induction: 4.5 h; library: site-saturation at positions 5, 18, 19, 20
Lab note: compare shrunken log2 fold change against -0.003. Equal or greater, write True. Smaller, write False.

RRIRFRPPRLPRPRPRPCPHPRP | False

### Prompt Could you verify whether the entry `RRIRPRPPRLPRPRPRPNIKPRP` shows shrunken log2 fold change of no less than -0.003?
### Response False

====

System: Escherichia coli TOP10
Assay: shrunken log2 fold change of peptide-encoding DNA abundance (4.5 h post-induction vs induction); higher = less antimicrobial activity (less host growth inhibition)
Settings: time post-induction: 4.5 h; library: site-saturation at positions 5, 18, 19, 20
Items are presented alongside their recorded shrunken log2 fold change.
Write no unit; give the number alone.

RRIRNRPPRLPRPRPRPFEQPRP | -0.0506
RRIRTRPPRLPRPRPRPMFWPRP | 0.285

### Prompt Sample `RRIRIRPPRLPRPRPRPATWPRP` — what was its shrunken log2 fold change?
### Response -0.273

### Prompt Look up shrunken log2 fold change: `RRIRARPPRLPRPRPRPYGKPRP`
### Response -0.747

### Prompt Any idea what shrunken log2 fold change was measured for `RRIRNRPPRLPRPRPRPMMDPRP` ?
### Response -0.425

### Prompt What value of shrunken log2 fold change has been reported for the following sequence? `RRIRVRPPRLPRPRPRPEANPRP`
### Response -0.141

### Prompt Could you share which shrunken log2 fold change value was measured for `RRIRDRPPRLPRPRPRPLDYPRP` ?
### Response -0.242

### Prompt Item under review: `RRIRERPPRLPRPRPRPNDQPRP` . Reported shrunken log2 fold change?
### Response 0.0572

### Prompt Request the reported shrunken log2 fold change associated with `RRIRWRPPRLPRPRPRPKQWPRP`
### Response 0.155

====

Recorded shrunken log2 fold change values for a group of sequences are listed next.
Test system: Escherichia coli TOP10;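 further: peptides expressed intracellularly from a pBAD plasmid library in pooled LB shake-flask culture, induced with 0.3% L-arabinose, DNA abundance read by NGS, three biological replicates, DESeq2 with apeglm shrinkage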
Test: shrunken log2 fold change of peptide-encoding DNA abundance (4.5 h post-induction vs induction); higher = less antimicrobial activity (less host growth inhibition)
Conditions: time post-induction: 4.5 h; library: site-saturation at positions 5, 18, 19, 20
Keep it simple and answer with nothing but the number.

Below are worked cases with known answers.
RRIRFRPPRLPRPRPRPGFVPRP | 0.126
RRIRPRPPRLPRPRPRPIIAPRP | -0.681

In the following, a different sequence is considered.
### Prompt I would be grateful if you could share the reported shrunken log2 fold change for `RRIRLRPPRLPRPRPRPILCPRP` .
### Response -0.152
